- method_summary: Clinical study #3: PK of edaravone oral formulation (formula #3), fasted vs after high-fat, standard or light meal; analysis of variance
- Type: in vivo, human
- condition_parameters: male, human, plasma, po, 105 mg, 105 mg oral, formula #3, 2 h after light meal, mean (n = 16); read-out: AUC0-∞
measure: AUC(0-inf) (ng·h/mL)
Number only, in ng·h/mL; omit the unit.

Incoming: So what's the measured AUC(0-inf) for this one? `CC1=NN(c2ccccc2)C(=O)C1`
Outgoing: 1960

###

- method_summary: Clinical study #3: PK of edaravone oral formulation (formula #3), fasted vs after high-fat, standard or light meal; analysis of variance
- Assay type: in vivo, human
- condition_parameters: male, human, plasma, po, 105 mg, 105 mg oral, fasted and each postprandial administration alike; read-out: Cmax, median of values of each subject
measure: Cmax

Incoming: So what's the measured Cmax for this one? CC1=NN(c2ccccc2)C(=O)C1 [Edaravone, 3-methyl-1-phenyl-2-pyrazolin-5-one]
Outgoing: ~2 µg/mL

###

- method_summary: Clinical study #3: PK of edaravone oral formulation (formula #3), fasted vs after high-fat, standard or light meal; analysis of variance
- Assay type: in vivo, human
- condition_parameters: male, human, plasma, po, 105 mg, 105 mg oral, fasted, analysis of variance; read-out: Cmax Least-square mean
measure: Cmax (ng/mL)
Number only, in ng/mL; omit the unit.

Incoming: So what's the measured Cmax for this one? `CC1=NN(c2ccccc2)C(=O)C1`
Outgoing: 2020

###

- method_summary: Clinical study #2: PK of edaravone oral formulation (formula #2), fasted vs 4 h after high-fat meal
- Format: in vivo
- condition_parameters: male, human, plasma, 100 mg, 100 mg oral, formula #2, fasted, mean (n = 9)
measure: half-life (min)
Number only, in min; omit the unit.

Incoming: So what's the measured half-life for this one? `CC1=NN(c2ccccc2)C(=O)C1`
Outgoing: 560

###

- method_summary: Clinical study #4: PK of edaravone oral formulation (formula #2), high-fat meal 1 hour after administration vs fasted
- Assay type: in vivo, human
- condition_parameters: male, human, plasma, po, 100 mg, 100 mg oral, formula #2, fasted, mean (n = 9)
measure: Tmax (min)
Number only, in min; omit the unit.

Incoming: So what's the measured Tmax for this one? CC1=NN(c2ccccc2)C(=O)C1 [Edaravone, 3-methyl-1-phenyl-2-pyrazolin-5-one]
Outgoing: 21.6

###

- method_summary: Clinical study #3: PK of edaravone oral formulation (formula #3), fasted vs after high-fat, standard or light meal; analysis of variance
- Type: in vivo, human
- condition_parameters: male, human, plasma, po, 105 mg, 105 mg oral, formula #3, 2 h after standard meal, mean (n = 16); read-out: AUC0-∞
measure: AUC(0-inf) (ng·h/mL)
Number only, in ng·h/mL; omit the unit.

Incoming: So what's the measured AUC(0-inf) for this one? `CC1=NN(c2ccccc2)C(=O)C1`
Outgoing: 1720
